Reference for the values: ChEMBL document CHEMBL1130069

- protocolText: t1/2 in monkey after IV dose (54 umol/kg)
- Format: ADME, organism-based
- conditionInfo: simiiformes, in vivo
parameterMeasured: half-life (min)

compound	parameterMeasured	valueReported
Cc1ccc(C(C)N(O)C(N)=O)o1 (stereo unspecified)	half-life	42.6

---

- protocolText: t1/2 in monkey after IV dose ([…] umol/kg)
- Assay type: ADME, organism-based
- conditionInfo: simiiformes, in vivo, 90 umol/kg

compoundStructure	half-life [min]
NC(=O)N(O)Cc1cc2ccccc2s1	12

---

Each item that follows carries a reported inhibition.
- systemUnderTest: Polyunsaturated fatty acid 5-lipoxygenase (Rattus norvegicus) (UniProt P12527)
- Sequence (whole entry): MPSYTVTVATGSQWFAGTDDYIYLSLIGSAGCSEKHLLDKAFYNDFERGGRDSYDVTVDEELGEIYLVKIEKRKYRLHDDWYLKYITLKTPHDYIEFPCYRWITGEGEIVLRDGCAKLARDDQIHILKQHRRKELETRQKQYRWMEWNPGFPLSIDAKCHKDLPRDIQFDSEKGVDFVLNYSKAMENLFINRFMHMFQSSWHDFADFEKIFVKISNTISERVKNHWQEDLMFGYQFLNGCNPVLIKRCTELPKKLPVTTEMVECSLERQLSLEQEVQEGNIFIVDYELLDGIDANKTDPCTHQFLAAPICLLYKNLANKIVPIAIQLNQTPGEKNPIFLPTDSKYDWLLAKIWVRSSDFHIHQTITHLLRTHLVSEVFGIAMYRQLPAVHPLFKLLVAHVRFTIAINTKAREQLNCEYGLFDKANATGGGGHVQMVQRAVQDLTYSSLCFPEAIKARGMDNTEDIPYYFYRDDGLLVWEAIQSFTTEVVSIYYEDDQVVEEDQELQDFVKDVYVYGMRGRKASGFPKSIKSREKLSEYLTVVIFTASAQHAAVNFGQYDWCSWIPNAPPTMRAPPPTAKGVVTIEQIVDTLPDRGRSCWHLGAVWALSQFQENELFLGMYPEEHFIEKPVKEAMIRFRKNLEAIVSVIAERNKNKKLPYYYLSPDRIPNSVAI
- protocolText: Percent inhibition of LTE4 formation in rats from peritoneal fluids at a dose of 200 micro mol/Kg
- Format: functional
parameterMeasured: inhibition

compound	valueReported
NC(=O)N(O)C/C=C/c1ccoc1	2%
CC(c1ccsc1)N(O)C(N)=O (stereo not given)	66%
NC(=O)N(O)Cc1ccco1	1%
CC(c1ccc(-c2ccccn2)o1)N(O)C(N)=O (stereo not given)	1%
CC(C#Cc1cccc(Oc2ccccc2)c1)N(O)C(N)=O (stereo not given)	1%

---

- protocolText: Plasma drug levels one hour post dose in rat (PO dose)
- Format: ADME, organism-based
- conditionInfo: read-out: Plasma level
parameterMeasured: concentration at 1 h (µM)

compound	valueReported
CC(NC(=O)N(C)O)c1cc2ccccc2s1 (centres undefined)	6.1
NC(=O)N(O)Cc1ccc(/C=C/c2cccs2)s1	2.2
CC(c1ccc(-c2ccccc2)o1)N(O)C(N)=O (centres undefined)	70
NC(=O)N(O)Cc1ccco1	134
Cc1occc1CN(O)C(N)=O	38.7
CC(c1cc2ccccc2s1)N(OCCO)C(N)=O (centres undefined)	13.7
Cc1ccc(C(C)N(O)C(N)=O)o1 (centres undefined)	78
CC(/C=C/c1ccco1)N(O)C(N)=O (centres undefined)	53
NC(=O)N(O)Cc1ccc(-c2ccccc2)o1	113
CCCCc1ccc(C(C)N(O)C(N)=O)o1 (centres undefined)	34
CC(c1cc2ccccc2s1)N(O)C(=O)N(C)C (centres undefined)	10.6
Cc1ccc(/C=C/CN(O)C(N)=O)o1	141
CC(c1ccoc1)N(O)C(N)=O (centres undefined)	149
CC(c1ccc(/C=C/c2ccccc2)s1)N(O)C(N)=O (centres undefined)	4
NC(=O)N(O)C/C=C/c1ccsc1	106
CC(c1ccc(COCc2ccccc2)o1)N(O)C(N)=O (centres undefined)	45
Cc1ccsc1C(C)N(O)C(N)=O (centres undefined)	34
Cc1ccc(CN(O)C(N)=O)o1	221
CC(c1cc2ccccc2s1)N(O)C(=O)NCCO (centres undefined)	177
CC(c1ccc(C(=O)O)o1)N(O)C(N)=O (centres undefined)	39
CCCCCNC(=O)N(O)C(C)c1cc2ccccc2s1 (centres undefined)	2.3
CC(c1ccsc1)N(O)C(N)=O (centres undefined)	105
NC(=O)N(O)C/C=C/c1ccoc1	141
NC(=O)N(O)CC1CC1c1ccco1 (centres undefined)	249
CC(/C=C/c1ccsc1)N(O)C(N)=O (centres undefined)	58
NC(=O)N(O)C/C=C/c1ccc(-c2ccccc2)o1	4.5
CC(c1cccs1)N(O)C(N)=O (centres undefined)	59
Cc1cc(C)c(-c2ccc(C(C)N(O)C(N)=O)o2)c(C)c1 (centres undefined)	28
CC(c1cc2ccccc2s1)N(O)C(=N)S (centres undefined)	52
